biological target: Aurora A (Homo sapiens, UniProt O14965); construct: purchased Invitrogen PV3612; test: Aurora A inhibition assay (Z-Lyte); assay type: biochemical; conditions: dose of 10 μM; read-out: Aurora A relative inhibition percentage
Sequence (O14965 whole entry): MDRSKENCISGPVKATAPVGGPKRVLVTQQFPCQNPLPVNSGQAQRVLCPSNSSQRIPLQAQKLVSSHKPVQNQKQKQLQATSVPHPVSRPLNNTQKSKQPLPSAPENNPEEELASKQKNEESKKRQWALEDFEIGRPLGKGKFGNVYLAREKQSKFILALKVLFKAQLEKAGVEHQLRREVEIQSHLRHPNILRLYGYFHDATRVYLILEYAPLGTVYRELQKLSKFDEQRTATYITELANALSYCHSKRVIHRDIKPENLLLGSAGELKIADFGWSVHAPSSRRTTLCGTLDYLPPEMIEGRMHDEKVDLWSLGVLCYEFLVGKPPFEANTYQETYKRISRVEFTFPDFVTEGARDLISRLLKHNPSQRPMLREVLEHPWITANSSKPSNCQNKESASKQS
measure: inhibition at 10 µM

Recorded inhibition at 10 µM, per entry:
compound: CN(C)Cc1ccc(/C=C/c2n[nH]c3cc(C=C4C(=O)Nc5ccccc54)ccc23)cc1 [Compound 39]
target.or.test.system: Aurora A (Homo sapiens, UniProt O14965)
measured.value: > 50%

compound: COc1ccc2c(c1)[C@]1(C[C@H]1c1ccc3c(/C=C/c4ccc(CN5CCOCC5)cc4)n[nH]c3c1)C(=O)N2C [Compound 36]
target.or.test.system: Aurora A (Homo sapiens, UniProt O14965)
measured.value: > 50%

compound: COc1ccc2c(c1)[C@@]1(C[C@@H]1c1ccc3c(-c4ccc(N5CCN(C)CC5)nc4)n[nH]c3c1)C(=O)N2 (racemic) [Compound 2]
target.or.test.system: Aurora A (Homo sapiens, UniProt O14965)
measured.value: < 50%

compound: COc1ccc2c(c1)[C@]1(C[C@H]1c1ccc3c(/C=C/c4ccc(CN5C[C@@H](C)O[C@@H](C)C5)cc4)n[nH]c3c1)C(=O)N2 [Compound 37]
target.or.test.system: Aurora A (Homo sapiens, UniProt O14965)
measured.value: > 50%

We next turn to a different compound, shown below.
inhibition at 10 µM lookup needed for C[C@@H]1CN(Cc2ccc(/C=C/c3n[nH]c4cc([C@@H]5C[C@@]56C(=O)Nc5ccccc56)ccc34)cc2)C[C@H](C)O1 [Compound 38] , thanks. > 50%

Cited source: patent US8933070B2
